Assign inhibition to each entry below.
# TESTED_SYSTEM: Interleukin-8 receptors, CXCR1/CXCR2 (Homo sapiens) (UniProt P25025+P25024)
# TEST_METHOD_NOTES: Inhibition of interleukin-8 induced chemotaxis of human polymorphonuclear cells at 10 nM
API: value field is a number in %; no unit string.

Form: item C[C@H](C(=O)NS(C)(=O)=O)c1ccc(-c2ccccc2)c(F)c1 ; test system Interleukin-8 receptors, CXCR1/CXCR2 (Homo sapiens) (UniProt P25025+P25024); inhibition: 19

Form: item CC(C)Cc1ccc([C@@H](C)C(=O)Nc2ccccc2)cc1 ; test system Interleukin-8 receptors, CXCR1/CXCR2 (Homo sapiens) (UniProt P25025+P25024); inhibition: 30

Form: item C[C@@H](C(=O)NS(C)(=O)=O)c1ccc(-c2ccccc2)c(F)c1 ; test system Interleukin-8 receptors, CXCR1/CXCR2 (Homo sapiens) (UniProt P25025+P25024); inhibition: 30

Form: item CC(C(=O)O)c1cccc(Cc2ccccc2)c1 (stereo not given) ; test system Interleukin-8 receptors, CXCR1/CXCR2 (Homo sapiens) (UniProt P25025+P25024); inhibition: 30

Form: item CCNC(=O)[C@H](C)c1ccc(CC(C)C)cc1 ; test system Interleukin-8 receptors, CXCR1/CXCR2 (Homo sapiens) (UniProt P25025+P25024); inhibition: 26

Form: item CCS(=O)(=O)NC(=O)[C@H](C)c1ccc(CC(C)C)cc1 ; test system Interleukin-8 receptors, CXCR1/CXCR2 (Homo sapiens) (UniProt P25025+P25024); inhibition: 40

Form: item CCC(C)c1cccc(C(C)C(=O)O)c1 (stereo not given) ; test system Interleukin-8 receptors, CXCR1/CXCR2 (Homo sapiens) (UniProt P25025+P25024); inhibition: 50

Form: item CC(C)c1ccc(C(C)C(=O)O)cc1 (stereo not given) ; test system Interleukin-8 receptors, CXCR1/CXCR2 (Homo sapiens) (UniProt P25025+P25024); inhibition: 32

Form: item CNC(=O)[C@H](C)c1ccc(CC(C)C)cc1 ; test system Interleukin-8 receptors, CXCR1/CXCR2 (Homo sapiens) (UniProt P25025+P25024); inhibition: 40

Form: item CC(C)Oc1ccc(C(C)C(=O)O)cc1 (stereo not given) ; test system Interleukin-8 receptors, CXCR1/CXCR2 (Homo sapiens) (UniProt P25025+P25024); inhibition: 38
